targetSystem: Serine/threonine-protein kinase B-raf (Homo sapiens)
Sequence (P15056 whole entry): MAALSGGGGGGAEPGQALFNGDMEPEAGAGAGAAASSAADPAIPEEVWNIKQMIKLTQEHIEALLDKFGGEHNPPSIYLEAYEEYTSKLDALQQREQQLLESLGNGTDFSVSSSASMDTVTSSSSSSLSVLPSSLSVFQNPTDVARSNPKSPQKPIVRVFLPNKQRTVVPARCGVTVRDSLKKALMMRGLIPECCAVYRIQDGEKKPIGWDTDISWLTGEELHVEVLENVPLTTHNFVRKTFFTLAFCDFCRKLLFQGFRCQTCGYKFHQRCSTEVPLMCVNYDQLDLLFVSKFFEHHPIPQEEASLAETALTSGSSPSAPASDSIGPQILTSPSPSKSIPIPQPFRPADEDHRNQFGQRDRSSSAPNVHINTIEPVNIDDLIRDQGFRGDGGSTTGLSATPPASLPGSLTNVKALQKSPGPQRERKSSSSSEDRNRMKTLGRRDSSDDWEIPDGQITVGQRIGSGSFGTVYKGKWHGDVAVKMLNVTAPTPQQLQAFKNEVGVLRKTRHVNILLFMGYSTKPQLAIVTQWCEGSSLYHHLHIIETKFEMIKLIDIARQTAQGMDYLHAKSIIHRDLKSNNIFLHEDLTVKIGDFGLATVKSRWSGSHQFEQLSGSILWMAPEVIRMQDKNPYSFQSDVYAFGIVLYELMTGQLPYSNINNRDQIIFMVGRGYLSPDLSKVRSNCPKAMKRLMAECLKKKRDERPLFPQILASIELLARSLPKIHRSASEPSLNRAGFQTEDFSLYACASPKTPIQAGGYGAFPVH
assayComment: Inhibition of B-Raf-mediated ERK phosphorylation in cell-based assay
measuredProperty: log10 IC50 (log10 of the value in nM)
The figures below represent log10 of IC50, where IC50 is stated in nM.

Consider the worked cases shown below.
molecule: c1cc(-c2nn(C3CCCNC3)cc2-c2ccc3c(c2)Cc2c[nH]nc2-3)ccn1 (configuration not stated)
log10 IC50: 3.22
//
molecule: F[C@H]1CCNC[C@H]1n1cc(-c2ccc3c(c2)Cc2c[nH]nc2-3)c(-c2ccncc2)n1
log10 IC50: 3.33
//
molecule: CN1CCC(n2cc(-c3ccc4c(c3)Cc3c[nH]nc3-4)c(-c3ccncc3)n2)CC1
log10 IC50: 2.95
//
molecule: N[C@H]1CC[C@H](n2cc(-c3ccc4c(c3)Cc3c[nH]nc3-4)c(-c3ccncc3)n2)CC1
log10 IC50: 2.60
//
molecule: F[C@@H]1CNCC[C@H]1n1cc(-c2ccc3c(c2)Cc2c[nH]nc2-3)c(-c2ccncc2)n1 (stereo in doubt; 38)
log10 IC50: 2.85
//
molecule: c1cc(-c2nn(C3CC4COCC(C3)N4)cc2-c2ccc3c(c2)Cc2c[nH]nc2-3)ccn1 (configuration not stated)
log10 IC50: 2.79
//
molecule: c1cc(-c2nn(C3CCCNCC3)cc2-c2ccc3c(c2)Cc2c[nH]nc2-3)ccn1 (configuration not stated)
log10 IC50: 3.19
//
molecule: CNCCn1cc(-c2ccc3c(c2)Cc2c[nH]nc2-3)c(-c2ccncc2)n1
log10 IC50: 3.91

Noted for c1cc(-c2nn(C3CCNCC3)cc2-c2ccc3c(c2)Cc2c[nH]nc2-3)ccn1 : its log10 IC50 reads 2.36

Noted for O[C@@H]1CCC[C@H](n2cc(-c3ccc4c(c3)Cc3c[nH]nc3-4)c(-c3ccncc3)n2)C1 : its log10 IC50 reads 2.78

For this molecule ( F[C@H]1CNCC[C@@H]1n1cc(-c2ccc3c(c2)Cc2c[nH]nc2-3)c(-c2ccncc2)n1 ), measured log10 IC50 is 2.83

Looking up O[C@@H]1CNCC[C@H]1n1cc(-c2ccc3c(c2)Cc2c[nH]nc2-3)c(-c2ccncc2)n1 , I found its log10 IC50 recorded as 3.69

The reported value for F[C@H]1CNCC[C@H]1n1cc(-c2ccc3c(c2)Cc2c[nH]nc2-3)c(-c2ccncc2)n1 in terms of log10 IC50 is 2.61

Form: molecule = N[C@H]1CC[C@@H](n2cc(-c3ccc4c(c3)Cc3c[nH]nc3-4)c(-c3ccncc3)n2)CC1 ; log10 IC50 = 3.18

Value of measured log10 IC50 for the entry F[C@@H]1CNCC[C@H]1n1cc(-c2ccc3c(c2)Cc2c[nH]nc2-3)c(-c2ccncc2)n1 (stereo in doubt; 41) : 2.73

Record c1ccc(-n2cc(-c3ccc4c(c3)Cc3c[nH]nc3-4)c(-c3ccncc3)n2)cc1 . Reported log10 IC50: 3.64

Briefly, log10 IC50 measured for c1cc(-c2nn(C3CC4CCC(C3)N4)cc2-c2ccc3c(c2)Cc2c[nH]nc2-3)ccn1 (configuration not stated) : 2.42
